experiment: Intraperitoneal bioavailability in Wistar rat at 3 mg/kg and measured upto 24 hrs; settings: in vivo, ip
measuredQuantity: bioavailability (%)
Numbers only, in %.

Quick one: give measured bioavailability for O=C(O)c1cc(-c2ccc([C@]3(O)[C@@H]4CNC[C@H]3C4)cc2)c2ccc(-c3ccc(C(F)(F)F)cc3)cc2c1 114

---

system: Mus musculus; experiment: Antiallodynic activity in CCI surgery neuropathic pain Hsd:ICR mouse model assessed as reversal of mechano-allodynia by measuring paw withdrawal threshold at 10 micromol/kg,po and measured upto 6 hrs by von frey test; assay type: functional, organism-based; settings: dose 10.0 µmol/kg
The source made the active and inactive calls.
measuredQuantity: Activity

compound=CN(C)C(=O)COC(=O)c1cc(-c2ccc([C@H]3C[C@H]4C[C@@H]3CN4)cc2)c2ccc(-c3ccc(C(F)(F)F)cc3)cc2c1 measuredquantity=Activity observedresult=Active
compound=CCOC(=O)N1C[C@H]2C[C@@H](C1)[C@@]2(O)c1ccc(-c2cc(C(=O)OCC(=O)N(C)C)cc3cc(-c4ccc(C(F)(F)F)cc4)ccc23)cc1 measuredquantity=Activity observedresult=Active
compound="O=C(O)c1cc(-c2ccc(C3CCCNCC3)cc2)c2ccc(-c3ccc(C(F)(F)F)cc3)cc2c1 (racemic)" measuredquantity=Activity observedresult=Active

---

I'd be grateful if you could share measured logD at 20 h for these entries.
experiment: Lipophilicity, log D of compound at pH 7.4 incubated for 20 hrs by HPLC analysis; assay type: physicochemical; settings: buffer

Answered examples (3):
molecule=COC1(c2ccc(-c3cc(C(=O)O)cc4cc(-c5ccc(C(F)(F)F)cc5)ccc34)cc2)CC2(CNC2)C1 measuredquantity="logD at 20 h" observedresult=1.8
molecule="O=C(O)c1cc(-c2ccc(C3=C[C@H]4CNC[C@@H]4C3)cc2)c2ccc(-c3ccc(C(F)(F)F)cc3)cc2c1 (racemic)" measuredquantity="logD at 20 h" observedresult=2.2
molecule=O=C(O)c1cc(-c2ccc(C3CCCNCCC3)cc2)c2ccc(-c3ccc(C(F)(F)F)cc3)cc2c1 measuredquantity="logD at 20 h" observedresult=2.5

I would be grateful if you could provide logD at 20 h for each of the following entries.
1. O=C(O)c1cc(-c2ccc(C3CC4(CNC4)C3)cc2)c2ccc(-c3ccc(C(F)(F)F)cc3)cc2c1
2. O=C(O)c1cc(-c2ccc(C3(O)CC4(CNC4)C3)cc2)c2ccc(-c3ccc(C(F)(F)F)cc3)cc2c1
3. O=C(O)c1cc(-c2ccc(/C3=C/CCNCCC3)cc2)c2ccc(-c3ccc(C(F)(F)F)cc3)cc2c1
4. O=C(O)c1cc(-c2ccc([C@@H]3[C@@H]4CNC[C@H]3C4)cc2)c2ccc(-c3ccc(C(F)(F)F)cc3)cc2c1

[1.9, 0.81, 2.9, 2.8]

Quick one: give measured logD at 20 h for O=C(O)c1cc(-c2ccc(C3CNC3)cc2)c2ccc(-c3ccc(C(F)(F)F)cc3)cc2c1 1.4

---

assay: Selectivity ratio, ratio of IC50 for displacement of fluorescent tracer 4-(4-(1-(4-(1-(6-(3-carboxylato-4-(3-iminio-3H-xanthen-9-yl)benzamido)hexyl)-4,5-dihydro-1H-pyrrol-3-yl)butyl)piperidin-1-ium-4-yl)phenyl)-7-(4-(trifluoromethyl)phenyl)-2-naphthoate from mouse P2Y14R stably expressed in human HEK293 cells to IC50 for displacement of fluorescent tracer 4-(4-(1-(4-(1-(6-(3-carboxylato-4-(3-iminio-3H-xanthen-9-yl)benzamido)hexyl)-4,5-dihydro-1H-pyrrol-3-yl)butyl)piperidin-1-ium-4-yl)phenyl)-7-(4-(trifluoromethyl)phenyl)-2-naphthoate from human P2Y14R stably expressed in CHO cells; assay type: cell-based
I'd be grateful if you could share measured Ratio IC50 for these entries.
Numbers only.

I would be grateful if you could provide Ratio IC50 for each of the following entries.
1. O=C(O)c1cc(-c2ccc(C3CCCNCCC3)cc2)c2ccc(-c3ccc(C(F)(F)F)cc3)cc2c1
2. O=C(O)c1cc(-c2ccc(C3(O)C[C@H]4CNC[C@@H]4C3)cc2)c2ccc(-c3ccc(C(F)(F)F)cc3)cc2c1 (racemic)
3. O=C(O)c1cc(-c2ccc(C3CCCNCC3)cc2)c2ccc(-c3ccc(C(F)(F)F)cc3)cc2c1 (racemic)

1: 0.627; 2: 0.715; 3: 2.68

I would be grateful if you could provide Ratio IC50 for each of the following entries.
1. O=C(O)c1cc(-c2ccc(C3=C[C@H]4CNC[C@@H]4C3)cc2)c2ccc(-c3ccc(C(F)(F)F)cc3)cc2c1 (racemic)
2. O=C(O)c1cc(-c2ccc([C@]3(O)[C@@H]4CNC[C@H]3C4)cc2)c2ccc(-c3ccc(C(F)(F)F)cc3)cc2c1
3. O=C(O)c1cc(-c2ccc(C3=CC4(CNC4)C3)cc2)c2ccc(-c3ccc(C(F)(F)F)cc3)cc2c1

1: 0.336; 2: 0.811; 3: 1.64

Sourced from ChEMBL document CHEMBL5331128
